System: Mycobacterium tuberculosis
Protocol Notes: Growth inhibition of Mycobacterium tuberculosis H37Ra ATCC 25177 at active stage at 3.13 ug/ml measured after 8 days by XTT dye based two fold dilution method relative to control
Format: functional
Measurement Parameters: H37Ra ATCC 25177, 192 h, read-out: GI
Criterion: inhibition of growth at 3.13 µg/mL meeting or surpassing 40%. Met: YES. Not met: NO.

# Item Smiles, Label Class
measured = [
    ("O=C1NC(=S)S/C1=C\\c1cc2cc(Cl)ccc2nc1Cl", "YES"),
    ("COc1ccc2nc(Cl)c(/C=C3\\SC(=S)NC3=O)cc2c1", "NO"),
    ("COc1ccc2cc(/C=C3\\SC(=S)NC3=O)c(Cl)nc2c1", "NO"),
    ("O=C(O)CN1C(=O)/C(=C/c2cc3cc(F)ccc3nc2Cl)SC1=S", "NO"),
    ("Cc1cccc2cc(/C=C3\\SC(=S)N(CC(=O)O)C3=O)c(Cl)nc12", "NO"),
    ("CCOc1ccc2nc(Cl)c(/C=C3\\SC(=S)NC3=O)cc2c1", "YES"),
    ("O=C1NC(=S)S/C1=C\\c1cc2cc(F)ccc2nc1Cl", "YES"),
]

---

Tested on: Mycobacterium tuberculosis
Protocol Notes: Growth inhibition of Mycobacterium tuberculosis H37Ra ATCC 25177 at dormant stage at 1.56 ug/ml measured after 12 days by XTT dye based two fold dilution method relative to control
Assay type: functional
Measurement Parameters: H37Ra ATCC 25177, 288 h, read-out: GI
Criterion: inhibition of growth at 1.56 µg/mL meeting or surpassing -20%. Met: t. Not met: f.

# Item Smiles, Measured Target, Label Class
data = [
    ("O=C1NC(=S)S/C1=C\\c1cc2cc(Cl)ccc2nc1Cl", "Mycobacterium tuberculosis", "t"),
    ("COc1ccc2cc(/C=C3\\SC(=S)NC3=O)c(Cl)nc2c1", "Mycobacterium tuberculosis", "f"),
    ("O=C1NC(=S)S/C1=C\\c1cc2cc(F)ccc2nc1Cl", "Mycobacterium tuberculosis", "t"),
    ("Cc1cccc2cc(/C=C3\\SC(=S)N(CC(=O)O)C3=O)c(Cl)nc12", "Mycobacterium tuberculosis", "t"),
    ("O=C(O)CN1C(=O)/C(=C/c2cc3cc(F)ccc3nc2Cl)SC1=S", "Mycobacterium tuberculosis", "t"),
    ("COc1ccc2nc(Cl)c(/C=C3\\SC(=S)NC3=O)cc2c1", "Mycobacterium tuberculosis", "f"),
    ("Cc1cccc2cc(/C=C3\\SC(=S)NC3=O)c(Cl)nc12", "Mycobacterium tuberculosis", "t"),
    ("CCOc1ccc2nc(Cl)c(/C=C3\\SC(=S)NC3=O)cc2c1", "Mycobacterium tuberculosis", "t"),
]

---

Protocol Notes: Cytotoxicity against primary HUVEC assessed as growth inhibition at 100 ug/ml measured after 48 hrs by MTT assay relative to control
Format: toxicity, cell-based
Measurement Parameters: human, read-out: GI

# Item Smiles, Readout Units, inhibition at 48 h, 100 ug/ml
measured = [
    ("COc1ccc2nc(Cl)c(/C=C3\\SC(=S)NC3=O)cc2c1", "%", 29.4),
    ("O=C1NC(=S)S/C1=C\\c1cc2cc(Cl)ccc2nc1Cl", "%", 25.9),
    ("CCOc1ccc2nc(Cl)c(/C=C3\\SC(=S)NC3=O)cc2c1", "%", 33),
    ("COc1ccc2cc(/C=C3\\SC(=S)NC3=O)c(Cl)nc2c1", "%", 25.4),
    ("O=C(O)CN1C(=O)/C(=C/c2cc3cc(F)ccc3nc2Cl)SC1=S", "%", 31.2),
    ("Cc1cccc2cc(/C=C3\\SC(=S)NC3=O)c(Cl)nc12", "%", 14.9),
    ("O=C1NC(=S)S/C1=C\\c1cc2cc(F)ccc2nc1Cl", "%", 34.2),
    ("Cc1cccc2cc(/C=C3\\SC(=S)N(CC(=O)O)C3=O)c(Cl)nc12", "%", 34),
]

Every entry's value here was drawn from ChEMBL document CHEMBL3877264.
